Origin of values: patent US6403764

Molecular target: T1, human IGFBP-1 (human, UniProt P08833 26-259)
T1 construct: mature; Secreted recombinant protein; also called IGFBP-I
T1 sequence (looked up): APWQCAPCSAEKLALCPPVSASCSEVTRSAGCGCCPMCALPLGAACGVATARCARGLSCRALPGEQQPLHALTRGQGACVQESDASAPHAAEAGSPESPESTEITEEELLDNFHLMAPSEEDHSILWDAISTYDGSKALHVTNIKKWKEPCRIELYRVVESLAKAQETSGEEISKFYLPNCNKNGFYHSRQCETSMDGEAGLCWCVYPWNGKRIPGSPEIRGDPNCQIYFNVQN
Assay: competitive phage ELISA
The threshold is 10 nM. Values of IC50 beneath it are tagged y; values meeting or exceeding it are tagged n.

binder: IGF-I S51A displayed on phage (ligand, On phage; G1S-A70V template; not shown: Display partner: M13 gene III protein fragment (residues 249-406, mature count) and the junction to it) SPETLCGAELVDALQFVCGDRGFYFNKPTGYGSSSRRAPQTGIVDECCFRACDLRRLEMYCAPLKPAKSV
label: n
//
binder: IGF-I K68A displayed on phage (ligand, not shown: large carriers; small tags and cut ends, On phage; G1S-A70V template) SPETLCGAELVDALQFVCGDRGFYFNKPTGYGSSSRRAPQTGIVDECCFRSCDLRRLEMYCAPLKPAASV
label: n
//
binder: IGF-I L14A displayed on phage (ligand, On phage; G1S-A70V template; not shown: M13 gene III fragment (residues 249-406), the display carrier, and its junction) SPETLCGAELVDAAQFVCGDRGFYFNKPTGYGSSSRRAPQTGIVDECCFRSCDLRRLEMYCAPLKPAKSV
label: n
//
binder: IGF-I R21A displayed on phage (ligand, On phage; G1S-A70V template; not shown: Display carrier: M13 gene III protein fragment (residues 249-406) and the junction to it) SPETLCGAELVDALQFVCGDAGFYFNKPTGYGSSSRRAPQTGIVDECCFRSCDLRRLEMYCAPLKPAKSV
label: y
//
binder: IGF-I R55A displayed on phage (ligand, On phage; G1S-A70V template; not shown: Display partner: M13 gene III protein fragment (residues 249-406, mature count) and the junction to it) SPETLCGAELVDALQFVCGDRGFYFNKPTGYGSSSRRAPQTGIVDECCFRSCDLARLEMYCAPLKPAKSV
label: y
//
binder: IGF-I F23A displayed on phage (ligand, On phage; G1S-A70V template; not shown: Display carrier: M13 gene III protein fragment (residues 249-406) and the junction to it) SPETLCGAELVDALQFVCGDRGAYFNKPTGYGSSSRRAPQTGIVDECCFRSCDLRRLEMYCAPLKPAKSV
label: n
//
binder: IGF-I T4A displayed on phage (ligand, not shown: large carriers; small tags and cut ends, On phage; G1S-A70V template) SPEALCGAELVDALQFVCGDRGFYFNKPTGYGSSSRRAPQTGIVDECCFRSCDLRRLEMYCAPLKPAKSV
label: n
//
binder: IGF-I L54A displayed on phage (ligand, On phage; G1S-A70V template; not shown: Display partner: M13 gene III protein fragment (residues 249-406, mature count) and the junction to it) SPETLCGAELVDALQFVCGDRGFYFNKPTGYGSSSRRAPQTGIVDECCFRSCDARRLEMYCAPLKPAKSV
label: n
//
binder: IGF-I L64A displayed on phage (ligand, On phage; G1S-A70V template; not shown: M13 gene III protein fragment (residues 249-406), the phage display carrier, and its junction to IGF-I) SPETLCGAELVDALQFVCGDRGFYFNKPTGYGSSSRRAPQTGIVDECCFRSCDLRRLEMYCAPAKPAKSV
label: n
//
binder: IGF-I L57A displayed on phage (ligand, On phage; G1S-A70V template; not shown: M13 gene III protein fragment (residues 249-406), the phage display carrier, and its junction to IGF-I) SPETLCGAELVDALQFVCGDRGFYFNKPTGYGSSSRRAPQTGIVDECCFRSCDLRRAEMYCAPLKPAKSV
label: n
//
binder: IGF-I D20A displayed on phage (ligand, On phage; G1S-A70V template; not shown: Display carrier: M13 gene III protein fragment (residues 249-406) and the junction to it) SPETLCGAELVDALQFVCGARGFYFNKPTGYGSSSRRAPQTGIVDECCFRSCDLRRLEMYCAPLKPAKSV
label: y
//
binder: IGF-I P66A displayed on phage (ligand, On phage; G1S-A70V template; not shown: M13 gene III protein fragment (residues 249-406), the phage display carrier, and its junction to IGF-I) SPETLCGAELVDALQFVCGDRGFYFNKPTGYGSSSRRAPQTGIVDECCFRSCDLRRLEMYCAPLKAAKSV
label: y
//
binder: IGF-I E9A displayed on phage (ligand, On phage; G1S-A70V template; not shown: M13 gene III fragment (residues 249-406), the display carrier, and its junction) SPETLCGAALVDALQFVCGDRGFYFNKPTGYGSSSRRAPQTGIVDECCFRSCDLRRLEMYCAPLKPAKSV
label: y
//
binder: IGF-I E3A displayed on phage (ligand, not shown: large carriers; small tags and cut ends, On phage; G1S-A70V template) SPATLCGAELVDALQFVCGDRGFYFNKPTGYGSSSRRAPQTGIVDECCFRSCDLRRLEMYCAPLKPAKSV
label: n
//
binder: IGF-I Y24A displayed on phage (ligand, On phage; G1S-A70V template; not shown: Display carrier: M13 gene III protein fragment (residues 249-406) and the junction to it) SPETLCGAELVDALQFVCGDRGFAFNKPTGYGSSSRRAPQTGIVDECCFRSCDLRRLEMYCAPLKPAKSV
label: n
//
binder: IGF-I G22A displayed on phage (ligand, On phage; G1S-A70V template; not shown: Display carrier: M13 gene III protein fragment (residues 249-406) and the junction to it) SPETLCGAELVDALQFVCGDRAFYFNKPTGYGSSSRRAPQTGIVDECCFRSCDLRRLEMYCAPLKPAKSV
label: n
//
binder: IGF-I F16A displayed on phage (ligand, On phage; G1S-A70V template; not shown: M13 gene III fragment (residues 249-406), the display carrier, and its junction) SPETLCGAELVDALQAVCGDRGFYFNKPTGYGSSSRRAPQTGIVDECCFRSCDLRRLEMYCAPLKPAKSV
label: n
//
binder: IGF-I D12A displayed on phage (ligand, On phage; G1S-A70V template; not shown: M13 gene III fragment (residues 249-406), the display carrier, and its junction) SPETLCGAELVAALQFVCGDRGFYFNKPTGYGSSSRRAPQTGIVDECCFRSCDLRRLEMYCAPLKPAKSV
label: y
//
binder: IGF-I R37A displayed on phage (ligand, not shown: large carriers, On phage; G1S-A70V template) SPETLCGAELVDALQFVCGDRGFYFNKPTGYGSSSRAAPQTGIVDECCFRSCDLRRLEMYCAPLKPAKSV
label: n
